- protocol.notes: qHTS of Nrf2 Activators: Hit Validation in Primary Assay; also: potency is read from the fitted curve at half-maximal effect; nearly all actives have a fitted effect of over 70% in size
- recorded.conditions: Nrf2/ARE reporter cell assay, activation
Out of some 1,100 compounds screened, about 860 (78%) were called active. Roughly 19% stayed inconclusive and do not appear here. The set was probably picked from earlier hits. The list shows a part of the results.
result.type: Potency

Known results for molecules:
{"smiles.str": "Clc1cccc(/C=N\\Nc2nccs2)c1", "Potency": "2.91 µM (active)"}
{"smiles.str": "CCn1c(=O)oc2cc(NC(=O)CCl)ccc21", "Potency": "4.61 µM (active)"}
{"smiles.str": "Cn1c(=O)oc2cc(NC(=O)CCl)ccc21", "Potency": "4.61 µM (active)"}
{"smiles.str": "O=C(/C=C/c1ccccc1)c1c(O)n(CCc2ccccc2)c(=O)[nH]c1=O", "Potency": "3.66 µM (active)"}

Asked: State the recorded Potency for this entry: `O=C(O)c1ccc([N+](=O)[O-])c([N+](=O)[O-])c1`
Given back: 5.17 µM (active)

Asked: Please look up its Potency: `Cn1c(O)c(N=Nc2ccc(S(=O)(=O)N3CCOCC3)cc2)c(=O)n(C)c1=O`
Given back: 18.4 µM (active)

Asked: What value of Potency has been reported for the following molecule? `COc1ccc(Sc2cnn(-c3ccccc3)c(=O)c2Cl)cc1`
Given back: 4.61 µM (active)

Asked: Fill in the blank: the reported Potency of `Cc1cc(SCC(=O)N/N=C/c2ccco2)nc2ccccc12` is ____.
Given back: 11.6 µM (active)

This collection of values is drawn from PubChem BioAssay AID651593.
